system: Mus musculus; assay: Toxicity in Swiss Webster mouse assessed as phosphate level at 10 mg/kg, ip daily for 7 days measured after 7 days; format: organism-based; set-up: dose 10 mg/kg, route intraperitoneal; conditions: in vivo, 168 h
Metric name: Activity
Units required after the number.

Q) Quick one: Activity of CCCOc1ccc(/C=C2\SC(=O)NC2=O)cc1 ?
A) 5.7 mg/dL

====

system: Mus musculus; assay: Toxicity in Swiss Webster mouse assessed as blood urea nitrogen level at 50 mg/kg, ip daily for 7 days measured after 7 days; format: organism-based; set-up: dose 50 mg/kg, route intraperitoneal; settings: in vivo, 168 h
Metric name: Activity

Q) Give its Activity value. Item: CCCOc1ccc(/C=C2\SC(=O)NC2=O)cc1
A) 14 mg/dL
